Tested on: HCV core protein (core106) dimerization, Hepatitis C virus
Assay: HCV core106 dimerization inhibitors, late-stage follow-up, biochemical, AlphaScreen luminescence, single dose 15 µM, powder samples (AID 651576)
Details: AlphaScreen GST/Flag-core106 dimerization, at 15 µM
Activity calls are given as the source filed them.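 How the source made its calls: active means inhibition of at least 50%, averaged over three replicate wells; inactive means inhibition below 50%.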
Classes used: active, inactive

compound-structure	study-system	label-value
Cc1ccc(Cc2c(C)nc3nc(SCC(=O)N[C@H]4CCCN(C(=O)CSc5nc6nc(C)c(Cc7ccc(C)cc7)c(C)n6n5)C4)nn3c2C)cc1	HCV core protein (core106) dimerization, Hepatitis C virus	active
Cc1ccc(Cc2c(C)nc3nc(SCC(=O)NCCN4CCN(S(=O)(=O)c5ccc(C)cc5)CC4)nn3c2C)cc1	HCV core protein (core106) dimerization, Hepatitis C virus	inactive
Cc1ccc(Cc2c(C)nc3nc(SCC(=O)NCCN4CCN(C(=O)C(C)C)CC4)nn3c2C)cc1	HCV core protein (core106) dimerization, Hepatitis C virus	inactive
Cc1ccc(Cc2c(C)nc3nc(SCC(=O)N4CCCC4)nn3c2C)cc1	HCV core protein (core106) dimerization, Hepatitis C virus	active
